Where these numbers come from: patent US20200277373A1

Biological target: T1, His-tagged TREM2 ECD (ecto domain residues 19-172 of human TREM2, C-terminal 6X-His tag) (human, UniProt Q9NZC2 19-172)
T1 construct: Made in Expi293F cells; the mouse Ig kappa secretion signal is not part of the mature protein; Biotinylated for the Octet binning; also called TREM2-His; TREM2-His protein
T1 sequence: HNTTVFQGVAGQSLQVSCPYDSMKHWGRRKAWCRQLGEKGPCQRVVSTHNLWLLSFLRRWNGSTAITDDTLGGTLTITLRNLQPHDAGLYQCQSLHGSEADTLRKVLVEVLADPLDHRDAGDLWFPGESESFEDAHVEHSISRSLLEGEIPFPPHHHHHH
Experiment: Table 1 Kd; Biacore, TREM2-His analyte (presumed)
Procedure: Anti-murine Fc antibody (obtained from GE Healthcare) was immobilized on the surface of a CM5 chip (obtained from GE Healthcare) through amine-coupling to reach about 6,000 to 8,000 response units (RU). The surface was activated by injection of a mixture of 1-ethyl-3-(3-dimethylaminopropyl)-carbodiimide (EDC) and N-hydroxysuccinimide (NHS), both obtained from GE Healthcare, for 7 minutes. […]
parameter-measured: Kd (nM)

• RS9.F10 (antibody, V domains shown, same entries as RS9.F6; also called RS.F10) VH: QVQLQQPGAELVKPGASVKLSCKASGYTFTSYWMHWVKQSPGRGLEWIGRSDPTTGGTNYNEKFKTKATLTVDKPSSTAYMQLSSLTSDDSAVYYCVRTSGTGDYWGQGTSLTVSS VL: DVVMTQTPLSLPVSLGDQASISCRSSQSLVHNNGNTFLHWYLQKPGQSPKLLIYKVSNRFSGVPDRFSGSGSGTDFTLKISRVEAEDLGVYFCSQTTHVPPTFGGGTKLEIK = 0.852
